apparent KD of K4 kissing-loop reporter by entry:
# Tested on: K4 kissing-loop RNA reporter;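 further: bound reporter read as fluorescence of individual clusters on recovered sequencing chips by microscopy, with normalized cluster intensities fitted with a binding model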
# assay.remarks: apparent KD of K4 kissing-loop reporter; higher = weaker reporter binding
# run.conditions: Eterna round: R107; input ligand: FMN 200 uM
measured.metric: apparent KD of K4 kissing-loop reporter (nM)

>>> measured_value("GGUGUUGUUUGUGCUGUUUUCUUCGUUUCUCGAGGACCGGUACGGCCGCCACUCGAGUGAUGUUUGGGUAGCGAUGUUUGUUAGU [Bdazzled - #3 - Exc. Tryptophan A]")
473
>>> measured_value("UGUCAUUGGUCGGCCGCCACUAUAAUAAAAGAGUGAUGUUCUAAAAGACGGACAAAAGUCUGUCGUAGGACCGGGACCGAUGACU [TrypBS 26 #SwitchBubble #StaticStem]")
1100
>>> measured_value("GUCUGCGUCUCGGCCGCCACUCACUAGUGAUGUUAGUAAGGAGCGACUAGCGCAGUCCUGAAGAUGAGGACCGGGAGACGCAGGA [Exclusion Tryptophan B GF5]")
141
>>> measured_value("UGUUUUUACUGAAGGAGCGGCAAUUGAUACGUAGAUAUAGUGAUGUUAUAUAAGAUAGAGAGCCAGGUAGGUCGCAGAUUUUUUC [ExArgB.Y]")
179
>>> measured_value("GUUACGCAUGGAAGGAGCGCUCUCAGGCUUAAUAACACAGUGAUGUUGUGAAUUUGCCUAAAGCAGGUAGGUCGCCAUGUGUAAC [Ex Arginine B K4 9]")
426
>>> measured_value("CGUUUAUAGGAGGAUACCAGUACGGAUAAAGUACGUUAAUAGUAGAGUGAUGUUCUAAAGUACCCUUGGCAGCUUAGAGUGAGUG [ExTheophylB.N]")
100
>>> measured_value("UUGUUUUACUGAAGGAGCGGCAAUUGAUACGUAGAUAUAGUGAUGUUAUAUAAGAUAGAGAGCCAGGUAGGUCGCAGAUGUGUUU [ExArgB.T]")
196
>>> measured_value("GCUAUGGUAGGAAGGAGCGCUUGCUCGGUCAUAUGAGUGAUGUUCGAGACUGAGCAUUUAUAGCAGGUAGGUCGCCUACUAUAGC [Arginine B K4 9]")
235
>>> measured_value("UCCUAGGCUCGAAAGAGCCUAGGAUUAUCUCAGGAUAUCCGGAAACGGAGAAGGGAGAAACUAGUGAUGUUAGGGAUUCCCUCUU")
421
>>> measured_value("GCAGGACGAUGAGGAGGAUGAAUUACUGAAGGAGCGCAUAUGGUUGCAGGUAGGUCGCGGUGAACAAGUAUAGUGAUGUUAUAUC [SSArgA.R]")
755
>>> measured_value("AGUUUAGAGUGACUCGAUAAGAGUCACAAACGAGGACCGGUACGGCCGCCACUCGAAAUAACGAGAGUGAUGUUCUCGCUGGGCA [FiskerMod 3 - Jieux - Same State Tryptophan A]")
332
>>> measured_value("AGGUGCUACGGAAGGAGCGCACCAGUGAUGUUGGUGUGUGACCGUGACAUGGCAGUCAAGGUGCAGGUAGGUCGCCGUGGCCUUU [Geeseris]")
137

----------
# Tested on: MS2 coat protein
# assay.remarks: apparent KD of MS2 coat protein; designed switch direction (-1 OFF switch, 1 ON switch): 1; higher = weaker reporter binding
# run.conditions: input ligand: microRNA oligo, concentration not stated
Label Condition met when apparent KD of MS2 coat protein is at or above 30 nM; anything below gets Condition not met.

>>> label("UAUCCAUAGAUAGGAUAUUAGAGAACAUGAGGAUCACCCAUGUUUGGCUUGGUUUUAAGCUAAUCUAAGAAGGAUCUUGAUGAA [SameState NG2 #9] (Eterna round: R96, puzzle: Same State NG 2)")
"Condition not met"
>>> label("UUGAUGAACUGAGGAUAUCGAGUCGUCUCAUUACACAUGAGGAUCACCCAUGUGGGUUGUGGUAUCGAGAAGGCAGAAUACUCA [JR_SSNG2_Sub033] (Eterna round: R96, puzzle: Same State NG 2)")
"Condition not met"
>>> label("AUGCCAAAUGGAGGAUAUGGAGCCUUAUUGGCUCCAGAAGGUCAAACAUGAGGAUCACCCAUGUGGCAGUGGUCUAAUGACCAC [Eli NG1ss - 45] (Eterna round: R96, puzzle: Same State NG 1)")
"Condition met"
>>> label("GCGAGCGUACUUGCAACAUGAGGAUCACCCAUGUUAACUGGACAGGAUAUGGUACCGUUUCGGUACCAGAAGGGUUCAUCAUGU [JL SSNG3 3.67] (Eterna round: R96, puzzle: Same State NG 3)")
"Condition met"
>>> label("UAAAGAUCGCGAGGAUAUCGCGAGGAUCACCCGUGAGAAGGCGCAGAGCCGAGGAUCACCCGGCUGAUCCUGAGGAGGAGGUCU (Eterna round: R96, puzzle: Same State NG 1)")
"Condition met"

----------
# System: MS2 coat protein
# assay.remarks: apparent KD of MS2 coat protein; designed switch direction (-1 OFF switch, 1 ON switch): -1; higher = weaker reporter binding
# run.conditions: Eterna round: R95; input ligand: FMN 200 uM
measured.metric: apparent KD of MS2 coat protein (nM)

>>> measured_value("GGAAAGGUAGGAUAUACGAAGAAAAAGGGUAGAAUAAUAACACAUGAGGAUCACCCAUGUAGAAGGACCAAAUG [Mat - Exclusion 2 - Mod of my Tesla design - D7] (puzzle: Exclusion 2)")
71.1
>>> measured_value("CGUGGCUUUUACGUGAGUGGUGGGUGCAACAGGUGGGUUACAUGAGGAUCACCCAUGUGCUCACUUGCUCGUCUUUU [Grok-var2-10] (puzzle: Sensor v3, turn-off variant 2)")
51.8
>>> measured_value("ACAAGCUUUAGGCGUGUGAACAUGAGGAUCACCCAUGUAAAGUAGGUUAGGAGGUCUGUAAGGGAUGCUCGUCUUAU [JR_SWV3TOV1_Sub090] (puzzle: Sensor v3, turn-off variant 1)")
89.4
>>> measured_value("UUAUUACAAGCAAGAUCCCACAUGAGGAUCACCCAUGUGCUCGUCUUAUAAGGUACUGUGACGAAAGUCACGGUACC [Sensor 3, v1 - 100] (puzzle: Sensor v3, turn-off variant 1)")
25.8
>>> measured_value("UCGUGGUAAAUCAGAAGUUUCCUGAGCGGAGGAACUUUGACAUGAGGAUCACCCAUGUUGCUUUUUGCUCAUCUUAA [JR_SV3TOV2_Sub043] (puzzle: Sensor v3, turn-off variant 2)")
15.3

----------
apparent KD of MS2 coat protein by entry:
# Tested on: MS2 coat protein
# assay.remarks: apparent KD of MS2 coat protein; designed switch direction (-1 OFF switch, 1 ON switch): 1; higher = weaker reporter binding
# run.conditions: Eterna round: R95; input ligand: FMN 200 uM
measured.metric: apparent KD of MS2 coat protein (µM)

>>> measured_value("UACAAUCUAUCUGAGGAUAUCAUGAUUUUAACAUGAGGAUCACCCAUGUGCAGGAAAACUGCAUAUGAGAAGGCAGAUAGAUUGU [salish99_ss2_r3_070] (puzzle: Same State 2)")
0.199
>>> measured_value("ACAAGACAUGAGGAUCACCCAUGUAUAAAUUACACAGGAUAUCGGUGGGCCGCGCCUACACGAGAAGGGUGACUUC [Gere] (puzzle: Same State 1)")
0.077
>>> measured_value("UCUUGGUUUUUGCUCGUUUUUUGUGUUGAACAUGAGGAUCACCCAUGUAUUGUACGGUCCGGUUUAAUAGUGGUCCG [JMF 14] (puzzle: Sensor for hsa-mir-208a)")
0.0278
>>> measured_value("UUUAGUGGCGGGCAGGAUAUGUAUUAAAAUACAUGAGGAUCACCCAUGUGCGGGUAUAACACCCGACAGAAGGGCCAAUCGCUAC [Laonerce - 7] (puzzle: Same State 2)")
0.0209
>>> measured_value("CAGCGCUGUCGAGAGGAUAUGCGGUGAUGGACAUGAGGAUCACCCAUGUUAGCGACAGCAUCACGGCAGAAGGCUCUAUCGCUGC [Soteed Omei mod 29] (puzzle: Same State 2)")
0.0242
>>> measured_value("UUUAUACAUGAGGAUCACCCAUGUCAAUGUAGUCGAGGAUAUGGGCAGCUGUGAGGCGUACUAGAAGGCGAAGAGG [JL-ss1-3.09 ViennaUCT mod] (puzzle: Same State 1)")
0.103
>>> measured_value("UACAAUCUAUCUGAGGAUAUCAUGAAUUUAACAUGAGGAUCACCCAUGUGCAGGAAAACUGCAUAUGAGAAGGCAGAUAGAUUGU [salish99_ss2_r3_061] (puzzle: Same State 2)")
0.0713
>>> measured_value("AUUAAACAUGAGGAUCACCCAUGUCAACAAAGUCGAGGAUAUGGGCAAAUAAUAUAAGAACCAGAAGGCGAAUAAU [salish99_ss1_r3_058] (puzzle: Same State 1)")
0.0321
>>> measured_value("UCUUGGUUUUUGCUCGUUUUUUGUGUUGAACAUGAGGAUCACCCAUGUAUUGUACAGUCCAAUUUGAUAAUGGUCCG [JMF 54] (puzzle: Sensor for hsa-mir-208a)")
0.0376
>>> measured_value("UGUCCAGCCUGAGCUGGACAAAAGCAUGUACAUGAGGAUCACCCAUGUUCAUGUACAAGCUUUUUGCUCGUCUUAGA [salish99_208a_r3_064] (puzzle: Sensor for hsa-mir-208a)")
0.48
>>> measured_value("AACAAUCUAUCUGAGGAUAUCAUGAAAUAAACAUGAGGAUCACCCAUGUGCAGGUAAACUGCAUAUGAGAAGGCAGAUAGAUUGA [salish99_ss2_r3_040] (puzzle: Same State 2)")
0.0601
>>> measured_value("UCUUGGUUUUUGCUCGUUUUUUGUGUUGAACAUGAGGAUCACCCAUGUAUUGUACAAUCCAAUUUAAUAAUGGUCCA [Mod of one of JR's submissions 3] (puzzle: Sensor for hsa-mir-208a)")
0.0442
>>> measured_value("AUUAAACAUGAGGAUCACCCAUGUCAACAAAGUCGAGGAUAUGGGCAAAUAAAAUAUGAACCAGAAGGCGAAUAAU [salish99_ss1_r3_064] (puzzle: Same State 1)")
0.0321
